- PROTOCOL NOTES: Michaelis-Menten constant was measured against adenylate cyclase stimulation of cAMP formation in striatal homogenates
- Assay type: ADME, tissue-based
- PROTOCOL CONDITIONS: tissue homogenate
Collected Km values appear next to each entry.
PARAMETER: Km

[
  {
    "COMPOUND": "CCCN1CCC[C@H](c2ccc(O)c(O)c2)C1",
    "DATA VALUE": "65 µM"
  },
  {
    "COMPOUND": "NCCc1ccc(O)c(O)c1",
    "DATA VALUE": "7.8 µM"
  },
  {
    "COMPOUND": "CCCN1CCC[C@@H](c2ccc(O)c(O)c2)C1",
    "DATA VALUE": "21 µM"
  }
]

----------
Reported Ki is given for each of the following molecules.
- ASSAYED SYSTEM: D(1A) dopamine receptor (Rattus norvegicus, UniProt P18901)
- Sequence (P18901 whole entry): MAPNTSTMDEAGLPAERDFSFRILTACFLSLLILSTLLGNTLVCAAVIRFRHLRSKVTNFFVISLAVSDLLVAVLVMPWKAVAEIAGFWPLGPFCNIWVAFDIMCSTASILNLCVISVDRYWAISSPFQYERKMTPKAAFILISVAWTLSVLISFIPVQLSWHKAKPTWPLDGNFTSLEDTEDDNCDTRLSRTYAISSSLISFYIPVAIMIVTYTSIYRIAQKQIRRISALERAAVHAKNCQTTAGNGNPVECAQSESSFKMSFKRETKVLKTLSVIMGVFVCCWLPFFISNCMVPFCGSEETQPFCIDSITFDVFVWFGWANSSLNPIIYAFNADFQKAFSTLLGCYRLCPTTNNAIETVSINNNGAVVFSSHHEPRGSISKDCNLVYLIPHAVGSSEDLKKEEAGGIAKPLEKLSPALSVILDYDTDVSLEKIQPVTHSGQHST
- PROTOCOL NOTES: In vitro affinity against Dopamine receptor D1 using [3H]SCH-23390 radioligand in rat striatal homogenate.
PARAMETER: Ki (µM)

[
  {
    "COMPOUND": "CCCN1CCC[C@H](c2ccc(O)c(O)c2)C1",
    "UNIT ABBREV": "µM",
    "DATA VALUE": 57.8
  },
  {
    "COMPOUND": "CCCN1CCC[C@@H](c2ccc(O)c(O)c2)C1",
    "UNIT ABBREV": "µM",
    "DATA VALUE": 13.5
  }
]
